Numbers sourced from patent US10457655B2.

STUDY_SYSTEM: FASN enzyme (Homo sapiens)
ASSAY_METHOD_TEXT: Enzymatic Assay for FASN Inhibitors
Type: biochemical
pIC50: −log10 of the molar value.
METRIC: pIC50

Q: Complete the entry with pIC50 for `O=C(Nc1noc2ccc(-c3ccc(C(=O)N4CCN(C(=O)C5(O)CC5)CC4)cc3)cc12)C1CC1`
A: > 6.30

Q: Find the measured pIC50 of `CC(C)(C#N)c1cccc(-c2ccc(C(=O)N3CCN(C(=O)C4(O)CC4)CC3)cc2)c1` and report it.
A: > 6.30

Q: Tell me measured pIC50 for `COc1ccc2cc(-c3ccc(C(=O)N4CCN(C(=O)C5(O)CC5)CC4)cc3)ccc2c1` please.
A: > 6.30

Q: Please report the measured pIC50 for `O=C(c1ccc(-c2cccc(S(=O)(=O)NC3CC3)c2)cc1)N1CCN(C(=O)C2(O)CC2)CC1`
A: > 6.30

Q: Determine its reported pIC50: `O=C(c1ccc(N2CCc3c([nH]c4ccccc34)C2)cc1)N1CCN(C(=O)C2(O)CC2)CC1`
A: > 6.30

Q: State its pIC50: `O=C(Nc1noc2cc(-c3ccc(C(=O)N4CCN(C(=O)C5(O)CC5)CC4)cc3)ccc12)C1CC1`
A: > 6.30

Q: Name the recorded pIC50 of the compound listed here: `Cn1ccc2cc(-c3ccc(C(=O)N4CCN(C(=O)C5(O)CC5)CC4)c(C(F)(F)F)c3)ccc21`
A: > 6.30

Q: Answer with reported pIC50 of `Cn1cnc2cc(-c3cc(F)c(C(=O)N4CCN(C(=O)C5(O)CC5)CC4)c(F)c3)ccc21`
A: > 6.30

====

STUDY_SYSTEM: FASN enzyme (Homo sapiens, UniProt P49327)
Sequence (P49327 whole entry): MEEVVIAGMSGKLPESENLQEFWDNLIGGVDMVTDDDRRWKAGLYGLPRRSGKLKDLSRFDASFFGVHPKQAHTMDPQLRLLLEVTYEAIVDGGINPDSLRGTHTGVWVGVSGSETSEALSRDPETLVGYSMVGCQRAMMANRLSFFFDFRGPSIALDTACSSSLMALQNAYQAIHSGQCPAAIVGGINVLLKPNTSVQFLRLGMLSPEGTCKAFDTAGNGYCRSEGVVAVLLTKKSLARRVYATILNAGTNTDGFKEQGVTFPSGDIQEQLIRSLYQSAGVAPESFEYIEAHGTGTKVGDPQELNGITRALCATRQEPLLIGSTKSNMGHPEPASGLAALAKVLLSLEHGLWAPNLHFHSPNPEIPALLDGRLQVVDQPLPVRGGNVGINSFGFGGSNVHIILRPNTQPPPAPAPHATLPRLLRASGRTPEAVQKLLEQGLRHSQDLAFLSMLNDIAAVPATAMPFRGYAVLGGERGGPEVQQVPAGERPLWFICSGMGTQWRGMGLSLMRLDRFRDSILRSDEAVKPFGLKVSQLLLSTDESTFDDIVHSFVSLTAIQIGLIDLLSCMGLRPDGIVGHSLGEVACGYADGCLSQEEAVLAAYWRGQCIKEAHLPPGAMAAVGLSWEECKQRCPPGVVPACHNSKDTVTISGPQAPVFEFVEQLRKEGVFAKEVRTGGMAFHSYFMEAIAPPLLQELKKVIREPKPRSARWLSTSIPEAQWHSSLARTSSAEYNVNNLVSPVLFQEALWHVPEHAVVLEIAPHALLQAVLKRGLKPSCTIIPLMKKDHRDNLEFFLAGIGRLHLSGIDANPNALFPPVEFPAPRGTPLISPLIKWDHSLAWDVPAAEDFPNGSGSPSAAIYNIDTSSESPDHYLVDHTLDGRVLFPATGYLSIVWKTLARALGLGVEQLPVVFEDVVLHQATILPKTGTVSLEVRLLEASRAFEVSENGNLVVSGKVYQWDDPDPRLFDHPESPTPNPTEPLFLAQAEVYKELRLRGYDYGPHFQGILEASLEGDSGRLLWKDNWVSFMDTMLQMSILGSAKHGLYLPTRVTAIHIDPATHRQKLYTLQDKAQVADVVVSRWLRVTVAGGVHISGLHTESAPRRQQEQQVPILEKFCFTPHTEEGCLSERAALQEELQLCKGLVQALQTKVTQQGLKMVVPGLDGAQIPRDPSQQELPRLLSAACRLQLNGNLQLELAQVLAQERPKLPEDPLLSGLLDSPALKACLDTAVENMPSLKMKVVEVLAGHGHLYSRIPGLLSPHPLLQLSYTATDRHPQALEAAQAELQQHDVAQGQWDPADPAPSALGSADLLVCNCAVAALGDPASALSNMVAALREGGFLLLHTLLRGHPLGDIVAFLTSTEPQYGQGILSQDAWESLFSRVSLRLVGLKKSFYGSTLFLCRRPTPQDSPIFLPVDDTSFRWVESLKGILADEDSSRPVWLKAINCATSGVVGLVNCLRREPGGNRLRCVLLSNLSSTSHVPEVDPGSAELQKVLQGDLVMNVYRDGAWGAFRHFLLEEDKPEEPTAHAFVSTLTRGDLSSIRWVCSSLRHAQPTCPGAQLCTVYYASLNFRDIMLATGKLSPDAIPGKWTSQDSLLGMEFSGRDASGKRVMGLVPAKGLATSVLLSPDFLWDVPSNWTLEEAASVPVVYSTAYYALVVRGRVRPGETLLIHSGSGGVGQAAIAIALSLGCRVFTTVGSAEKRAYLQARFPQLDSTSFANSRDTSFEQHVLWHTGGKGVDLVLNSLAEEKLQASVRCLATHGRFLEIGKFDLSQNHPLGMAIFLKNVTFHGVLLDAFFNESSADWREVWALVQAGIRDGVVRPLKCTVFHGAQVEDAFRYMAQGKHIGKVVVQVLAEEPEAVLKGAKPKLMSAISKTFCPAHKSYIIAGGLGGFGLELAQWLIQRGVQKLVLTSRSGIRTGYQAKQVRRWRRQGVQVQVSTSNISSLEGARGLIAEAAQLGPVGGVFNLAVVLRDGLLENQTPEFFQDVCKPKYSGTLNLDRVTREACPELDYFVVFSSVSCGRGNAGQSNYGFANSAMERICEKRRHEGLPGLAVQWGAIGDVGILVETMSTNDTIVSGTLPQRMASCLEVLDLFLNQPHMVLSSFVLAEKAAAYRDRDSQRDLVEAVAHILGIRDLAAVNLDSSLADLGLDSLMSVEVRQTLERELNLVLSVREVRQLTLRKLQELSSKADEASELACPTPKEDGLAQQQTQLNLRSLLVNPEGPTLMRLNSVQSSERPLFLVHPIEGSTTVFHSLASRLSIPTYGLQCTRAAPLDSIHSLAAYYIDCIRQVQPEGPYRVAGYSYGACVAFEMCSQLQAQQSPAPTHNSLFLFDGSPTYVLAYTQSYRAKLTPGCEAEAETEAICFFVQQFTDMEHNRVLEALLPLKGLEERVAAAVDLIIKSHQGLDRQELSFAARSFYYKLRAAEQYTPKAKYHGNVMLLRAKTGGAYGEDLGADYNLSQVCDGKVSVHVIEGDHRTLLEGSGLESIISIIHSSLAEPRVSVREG
ASSAY_METHOD_TEXT: Enzymatic Assay for FASN Inhibitors
Type: biochemical
pIC50: −log10 of the molar value.
This section presents molecules with their documented pIC50 values.

Look over these answered cases.
In [3]: df
Out[3]:
                                   molecule                              study_system  experimental_value
0  O=C(c1ccc(-c2nc3ccccn3c2Cl)c(F)c1)N1CCN(C(=O)C2(O)CC2)CC1  FASN enzyme (Homo sapiens, UniProt P49327)              > 6.30
1  O=C(c1ccc(-c2ccc(Cl)c(F)c2)cc1)N1CCN(C(=O)C2(O)CC2)CC1  FASN enzyme (Homo sapiens, UniProt P49327)              > 6.30
2  Cc1nn(C)c2ccc(-c3ccc(C(=O)N4CCN(C(=O)C5(N)CC5)CC4)c(F)c3)cc12  FASN enzyme (Homo sapiens, UniProt P49327)              > 6.30
3  O=C(c1ccc(-c2ccc3ncccc3c2)c(Cl)c1)N1CCN(C(=O)C2(O)CC2)CC1  FASN enzyme (Homo sapiens, UniProt P49327)              > 6.30
4  N#Cc1cc2cc(-c3ccc(C(=O)N4CCN(C(=O)C5(O)CC5)CC4)cc3)ccc2[nH]1  FASN enzyme (Homo sapiens, UniProt P49327)              > 6.30

Q: Give me measured pIC50, please, for this molecule: `Cc1n[nH]c2cc(-c3ccc(C(=O)N4CCN(C(=O)C5(O)CC5)CC4)c(F)c3)ccc12`
A: > 6.30

Q: Using known records, supply pIC50 for `CNC(=O)c1cccc(-c2ccc(C(=O)N3CCN(C(=O)C4(O)CC4)CC3)cc2)n1`
A: > 6.30

Q: Answer with the recorded pIC50 for the molecule listed here: `O=C(NC1CC1)c1cccc(-c2ccc(C(=O)N3CCN(C(=O)C4(O)CC4)CC3)cc2)c1`
A: > 6.30

Q: Report pIC50 for Cn1cnc2cc(-c3ccc(C(=O)N4CCN(C(=O)C5CCO5)CC4)cc3)ccc21 (stereo not drawn)
A: > 6.30
